- Tested on: SR cells (Anaplastic Large Cell Lymphoma)
- RUN_DESCRIPTION: Soluble (shed) BCMA by ELISA
- Format: cell-based, human
- CONDITION_DETAILS: Homo sapiens, read-out: Shed BCMA (pg/ml) EC50
MEASUREMENT_TYPE: EC50

Dear colleague, I am looking for the recorded EC50 of the following compound: Cc1cccc2c1NC(=O)[C@@H](NC(=O)[C@H](CCC(F)(F)F)[C@H](CCC(F)(F)F)C(N)=O)N=C2c1cccc(F)c1
> 10 µM

---

- System: GA-10 cells (Burkitt's Lymphoma)
- RUN_DESCRIPTION: Soluble (shed) BCMA by ELISA
- Format: cell-based, human
- CONDITION_DETAILS: Homo sapiens, read-out: Shed BCMA (pg/ml) EC50
MEASUREMENT_TYPE: pEC50
Worth noting: pEC50 values are minus log10 of concentrations stated in mol/L.

Dear colleague, I am looking for the recorded pEC50 of the following compound: Cc1cccc2c1NC(=O)[C@@H](NC(=O)[C@H](CCC(F)(F)F)[C@H](CCC(F)(F)F)C(N)=O)N=C2c1cccc(F)c1
8.13

---

- Test system: Daudi cells (Burkitt's Lymphoma)
- RUN_DESCRIPTION: Cell surface BCMA by FACS
- Assay type: cell-based, human
- CONDITION_DETAILS: Homo sapiens, 24 h, read-out: BCMA (Mean Fluorescence Intensity) EC50
- Description: […] cell lines, comprising 9 subtypes of lymphomas (see Table 1), were seeded at 1×10^5 cells/well in a total volume of 250 μl into a 96-well plate. The cells were cultured in RPMI medium supplemented with 10% FCS. […] Following incubation, the cells were collected and BCMA levels were evaluated on the cell surface for cell-bound BCMA. […]
MEASUREMENT_TYPE: EC50 (nM)
Numeric answer only, unit nM assumed.

Dear colleague, I am looking for the recorded EC50 of the following compound: Cc1cccc2c1NC(=O)[C@@H](NC(=O)[C@H](CCC(F)(F)F)[C@H](CCC(F)(F)F)C(N)=O)N=C2c1cccc(F)c1
4.9

---

- Tested on: BC-1 cells (B-cell Lymphoma)
- RUN_DESCRIPTION: Soluble (shed) BCMA by ELISA
- Assay type: cell-based, human
- CONDITION_DETAILS: Homo sapiens, BC1, read-out: Shed BCMA (pg/ml) EC50
MEASUREMENT_TYPE: pEC50
Worth noting: pEC50 values are minus log10 of concentrations stated in mol/L.

API: value(readout= pEC50, system= BC-1 cells (B-cell Lymphoma), query= Cc1cccc2c1NC(=O)[C@@H](NC(=O)[C@H](CCC(F)(F)F)[C@H](CCC(F)(F)F)C(N)=O)N=C2c1cccc(F)c1 [Compound (22)] )
7.08

---

- Tested on: EB-2 cells (Burkitt's Lymphoma)
- RUN_DESCRIPTION: Soluble (shed) BCMA by ELISA
- Type: cell-based, human
- CONDITION_DETAILS: Homo sapiens, EB2; EB-2; read-out: Shed BCMA (pg/ml) EC50
MEASUREMENT_TYPE: pEC50
Worth noting: pEC50 values are minus log10 of concentrations stated in mol/L.

Dear colleague, I am looking for the recorded pEC50 of the following compound: Cc1cccc2c1NC(=O)[C@@H](NC(=O)[C@H](CCC(F)(F)F)[C@H](CCC(F)(F)F)C(N)=O)N=C2c1cccc(F)c1
8.15

---

- Test system: L-248 cells (Hodgkin's Lymphoma)
- RUN_DESCRIPTION: Cell surface BCMA by FACS
- Assay type: cell-based, human
- CONDITION_DETAILS: Homo sapiens, read-out: mBCMA (MFI) EC50
- Experimental: […] cell lines, comprising 9 subtypes of lymphomas (see Table 1), were seeded at 1×10^5 cells/well in a total volume of 250 μl into a 96-well plate. The cells were cultured in RPMI medium supplemented with 10% FCS. […] Following incubation, the cells were collected and BCMA levels were evaluated on the cell surface for cell-bound BCMA. […]
pEC50: −log10 of the molar value.
MEASUREMENT_TYPE: pEC50

Dear colleague, I am looking for the recorded pEC50 of the following molecule: Cc1cccc2c1NC(=O)[C@@H](NC(=O)[C@H](CCC(F)(F)F)[C@H](CCC(F)(F)F)C(N)=O)N=C2c1cccc(F)c1
< 5.00

---

- System: SUDHL-10 cells (DLBCL)
- RUN_DESCRIPTION: Cell surface BCMA by FACS
- Format: cell-based, human
- CONDITION_DETAILS: Homo sapiens, SU-DHL10, read-out: mBCMA (MFI) EC50
MEASUREMENT_TYPE: pEC50
Worth noting: pEC50 values are minus log10 of concentrations stated in mol/L.

Dear colleague, I am looking for the recorded pEC50 of the following compound: Cc1cccc2c1NC(=O)[C@@H](NC(=O)[C@H](CCC(F)(F)F)[C@H](CCC(F)(F)F)C(N)=O)N=C2c1cccc(F)c1 [Compound (22)]
8.23

---

- System: MHHH-PREB-1 cells (B-cell Lymphoma)
- RUN_DESCRIPTION: Cell surface BCMA by FACS
- Format: cell-based, human
- CONDITION_DETAILS: Homo sapiens, B-cell, read-out: mBCMA (MFI) EC50
MEASUREMENT_TYPE: EC50 (nM)
Numeric answer only, unit nM assumed.

Dear colleague, I am looking for the recorded EC50 of the following molecule: Cc1cccc2c1NC(=O)[C@@H](NC(=O)[C@H](CCC(F)(F)F)[C@H](CCC(F)(F)F)C(N)=O)N=C2c1cccc(F)c1 [Compound (22)]
1.7

---

- System: GA-10 cells (Burkitt's Lymphoma)
- RUN_DESCRIPTION: Cell surface BCMA by FACS
- Format: cell-based, human
- CONDITION_DETAILS: Homo sapiens, 24 h, read-out: BCMA (Mean Fluorescence Intensity) EC50
- Protocol: […] cell lines, comprising 9 subtypes of lymphomas (see Table 1), were seeded at 1×10^5 cells/well in a total volume of 250 μl into a 96-well plate. The cells were cultured in RPMI medium supplemented with 10% FCS. […] Following incubation, the cells were collected and BCMA levels were evaluated on the cell surface for cell-bound BCMA. […]
MEASUREMENT_TYPE: pEC50
Worth noting: pEC50 values are minus log10 of concentrations stated in mol/L.

Dear colleague, I am looking for the recorded pEC50 of the following compound: Cc1cccc2c1NC(=O)[C@@H](NC(=O)[C@H](CCC(F)(F)F)[C@H](CCC(F)(F)F)C(N)=O)N=C2c1cccc(F)c1 [Compound (22)]
9.25

---

- Tested on: Raji cells (Burkitt's Lymphoma)
- RUN_DESCRIPTION: Cell surface BCMA by FACS
- Assay type: cell-based, human
- CONDITION_DETAILS: Homo sapiens, read-out: mBCMA (MFI) EC50
MEASUREMENT_TYPE: EC50 (nM)
Numeric answer only, unit nM assumed.

Dear colleague, I am looking for the recorded EC50 of the following compound: Cc1cccc2c1NC(=O)[C@@H](NC(=O)[C@H](CCC(F)(F)F)[C@H](CCC(F)(F)F)C(N)=O)N=C2c1cccc(F)c1
1.1

---

- Test system: ST486 cells (DLBCL)
- RUN_DESCRIPTION: Cell surface BCMA by FACS
- Assay type: cell-based, human
- CONDITION_DETAILS: Homo sapiens, read-out: mBCMA (MFI) EC50
MEASUREMENT_TYPE: EC50 (nM)
Numeric answer only, unit nM assumed.

Dear colleague, I am looking for the recorded EC50 of the following molecule: Cc1cccc2c1NC(=O)[C@@H](NC(=O)[C@H](CCC(F)(F)F)[C@H](CCC(F)(F)F)C(N)=O)N=C2c1cccc(F)c1
0.58

---

- Test system: GA-10 cells (Burkitt's Lymphoma)
- RUN_DESCRIPTION: Cell surface BCMA by FACS
- Assay type: cell-based, human
- CONDITION_DETAILS: Homo sapiens, read-out: mBCMA (MFI) EC50
MEASUREMENT_TYPE: EC50 (pM)
Numeric answer only, unit pM assumed.

API: value(readout= EC50, system= GA-10 cells (Burkitt's Lymphoma), query= Cc1cccc2c1NC(=O)[C@@H](NC(=O)[C@H](CCC(F)(F)F)[C@H](CCC(F)(F)F)C(N)=O)N=C2c1cccc(F)c1 )
560

---

- Test system: H9 cells (Cutaneous T-cell Lymphoma)
- RUN_DESCRIPTION: Cell surface BCMA by FACS
- Type: cell-based, human
- CONDITION_DETAILS: Homo sapiens, read-out: mBCMA (MFI) EC50
MEASUREMENT_TYPE: EC50

Dear colleague, I am looking for the recorded EC50 of the following molecule: Cc1cccc2c1NC(=O)[C@@H](NC(=O)[C@H](CCC(F)(F)F)[C@H](CCC(F)(F)F)C(N)=O)N=C2c1cccc(F)c1
> 10 µM
